# Tested on: T. cruzi amastigotes within Vero cells
# experiment_notes: Drug sensitivity assay against T. cruzi-infected Vero cells (intracellular amastigotes)
# Format: cell-based, Trypanosoma cruzi
# assay_conditions: Trypanosoma cruzi, Vero, read-out: EC50 values, in Vero cells; cell line β5 D225N-OE; (*) one biological replicate
# Protocol: The clonal Leishmania donovani cell line LdBOB (derived from MHOM/SD/62/1S-CL2D) was grown as either promastigotes or axenic amastigotes in media specific for each developmental stage, as previously described ([32]). T. cruzi epimastigotes from the Silvio strain (MHOM/BR/78/Silvio; clone X10/7A [33]) were grown at 28°C in RTH/FBS (RPMI 1640 medium supplemented with Trypticase, hemin, HEPES, and 10% heat-inactivated fetal calf serum (FCS) [Fisher Scientific]) ([34]). […]
measurement_kind: pEC50
Answers are plain numbers, as −log10 of the molar value.

Query: Request body: readout pEC50, system T. cruzi amastigotes within Vero cells, query COc1ccc(NS(=O)(=O)c2cc(-c3cc(C)n[nH]3)ccc2C)cc1OC [Compound 1] . Return the value.
Response: 4.92

----------
Field: EC50. Provide a value for each of the compounds that follow.
# Tested on: T. cruzi epimastigotes
# experiment_notes: T. cruzi epimastigote drug sensitivity assay (resazurin)
# Format: cell-based, Trypanosoma cruzi
# assay_conditions: Trypanosoma cruzi, read-out: Mean EC50 ± SD, cell line Res I-β5 OE (β5 WT overexpressed in RES I)
# Procedure: To examine the effects of test compounds on the growth of T. cruzi epimastigotes, mid-log-phase parasites were seeded into 96-well plates at a cell density of 5 × 10^5 cells ml^−1. Cells were exposed to test compounds over a range of concentrations (2-fold serial dilutions). Cells were incubated for 4 days, and then 20 μl of 2.5 mM resazurin was added to each well, before measuring the fluorescence (excitation, 528 nm; emission, 590 nm), following a further 24 h of incubation. […]
Answers are plain numbers, in µM.

Look over these answered cases.
| smiles_str | measurement_kind | units | test_value |
| --- | --- | --- | --- |
| O=C(Nc1ccc(F)c(-c2cn3nc(-c4ccccc4)cnc3n2)c1)N1CCCC1 | EC50 | µM | 0.3 |
| COc1ccc(NS(=O)(=O)c2cc(-c3cc(C)n[nH]3)ccc2C)cc1OC | EC50 | µM | 13 |

Okay, next one:
Query: // returns reported EC50 for input Cc1nc(C)c(C(=O)Nc2ccc(F)c(-c3nc4ncc(-c5ccccn5)cn4n3)c2)o1
Response: 2

----------
# Tested on: T. cruzi amastigotes within Vero cells
# experiment_notes: Drug sensitivity assay against T. cruzi-infected Vero cells (intracellular amastigotes)
# Type: cell-based, Trypanosoma cruzi
# assay_conditions: Trypanosoma cruzi, Vero, read-out: EC50 values, in Vero cells; cell line β5 OE
# Protocol: The clonal Leishmania donovani cell line LdBOB (derived from MHOM/SD/62/1S-CL2D) was grown as either promastigotes or axenic amastigotes in media specific for each developmental stage, as previously described ([32]). T. cruzi epimastigotes from the Silvio strain (MHOM/BR/78/Silvio; clone X10/7A [33]) were grown at 28°C in RTH/FBS (RPMI 1640 medium supplemented with Trypticase, hemin, HEPES, and 10% heat-inactivated fetal calf serum (FCS) [Fisher Scientific]) ([34]). […]
measurement_kind: EC50

Query: // returns reported EC50 for input CSc1ccc(OCc2ncc([N+](=O)[O-])n2C)cc1
Response: 3000 nM

----------
Field: EC50. Provide a value for each of the molecules that follow.
# Test system: T. cruzi epimastigotes
# experiment_notes: T. cruzi epimastigote drug sensitivity assay (resazurin)
# Type: cell-based, Trypanosoma cruzi
# assay_conditions: Trypanosoma cruzi, read-out: Mean EC50 ± SD, cell line RES I (compound 1-resistant, β5 D225N)

Count: 3. Required value per item: EC50.
1. COc1ccc(NS(=O)(=O)c2cc(-c3cc(C)n[nH]3)ccc2C)cc1OC
2. O=C(Nc1ccc(F)c(-c2cn3nc(-c4ccccc4)cnc3n2)c1)N1CCCC1
3. Cc1nc(C)c(C(=O)Nc2ccc(F)c(-c3nc4ncc(-c5ccccn5)cn4n3)c2)o1

Response:
1: 61 µM; 2: 4 µM; 3: > 10 µM
